Consider the following molecules; for each one, report its % Enzyme Activity (relative to DMSO controls), Data 1.
Tested On: NEK2 (Homo sapiens, UniProt P51955)
Construct: purchased ReactionBiology
Sequence (P51955 1-445): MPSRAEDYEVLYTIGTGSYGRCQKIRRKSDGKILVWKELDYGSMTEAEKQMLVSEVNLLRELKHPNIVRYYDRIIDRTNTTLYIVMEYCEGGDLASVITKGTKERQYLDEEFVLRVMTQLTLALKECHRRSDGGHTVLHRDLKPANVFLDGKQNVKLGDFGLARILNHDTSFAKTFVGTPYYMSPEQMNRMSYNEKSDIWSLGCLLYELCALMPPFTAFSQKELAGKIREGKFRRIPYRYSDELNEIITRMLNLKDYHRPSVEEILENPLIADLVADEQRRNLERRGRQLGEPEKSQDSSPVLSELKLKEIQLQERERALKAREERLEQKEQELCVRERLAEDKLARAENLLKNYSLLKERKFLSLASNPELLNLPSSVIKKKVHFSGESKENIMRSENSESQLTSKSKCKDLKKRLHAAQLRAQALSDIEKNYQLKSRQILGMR
Test Description: Kinase activity test (ReactionBiology), % enzyme activity relative to DMSO;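 as to % Enzyme Activity (relative to DMSO controls), Data 1: FDA-approved drugs chosen by structure-based repositioning, each screened at 10 or 1 µM for kinase activity, expressed as percent of DMSO controls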
Type: biochemical
Run Conditions: NEK2; compound at 1 uM; replicate 1
Write the answer as a number in %, unit excluded.

Name the recorded % Enzyme Activity (relative to DMSO controls), Data 1 for Cc1ccc(C(=O)c2ccc(CC(=O)O)n2C)cc1 .
120.50

Another molecule to look at: c1coc(CNc2ncnc3[nH]cnc23)c1
107.23

Another molecule to look at: Nc1nc2c(ncn2COC(CO)CO)c(=O)[nH]1
112.02

Another molecule to look at: OC[C@@H](O)[C@@H](O)[C@H](O)[C@H](O)CO
110.81

Another molecule to look at: CC(=O)OCC1=C(C(=O)O)N2C(=O)[C@@H](NC(=O)Cc3cccs3)[C@H]2SC1
94.64

* * *

Tested On: VEGFR2 (Homo sapiens, UniProt P35968)
Sequence (P35968 20-1356): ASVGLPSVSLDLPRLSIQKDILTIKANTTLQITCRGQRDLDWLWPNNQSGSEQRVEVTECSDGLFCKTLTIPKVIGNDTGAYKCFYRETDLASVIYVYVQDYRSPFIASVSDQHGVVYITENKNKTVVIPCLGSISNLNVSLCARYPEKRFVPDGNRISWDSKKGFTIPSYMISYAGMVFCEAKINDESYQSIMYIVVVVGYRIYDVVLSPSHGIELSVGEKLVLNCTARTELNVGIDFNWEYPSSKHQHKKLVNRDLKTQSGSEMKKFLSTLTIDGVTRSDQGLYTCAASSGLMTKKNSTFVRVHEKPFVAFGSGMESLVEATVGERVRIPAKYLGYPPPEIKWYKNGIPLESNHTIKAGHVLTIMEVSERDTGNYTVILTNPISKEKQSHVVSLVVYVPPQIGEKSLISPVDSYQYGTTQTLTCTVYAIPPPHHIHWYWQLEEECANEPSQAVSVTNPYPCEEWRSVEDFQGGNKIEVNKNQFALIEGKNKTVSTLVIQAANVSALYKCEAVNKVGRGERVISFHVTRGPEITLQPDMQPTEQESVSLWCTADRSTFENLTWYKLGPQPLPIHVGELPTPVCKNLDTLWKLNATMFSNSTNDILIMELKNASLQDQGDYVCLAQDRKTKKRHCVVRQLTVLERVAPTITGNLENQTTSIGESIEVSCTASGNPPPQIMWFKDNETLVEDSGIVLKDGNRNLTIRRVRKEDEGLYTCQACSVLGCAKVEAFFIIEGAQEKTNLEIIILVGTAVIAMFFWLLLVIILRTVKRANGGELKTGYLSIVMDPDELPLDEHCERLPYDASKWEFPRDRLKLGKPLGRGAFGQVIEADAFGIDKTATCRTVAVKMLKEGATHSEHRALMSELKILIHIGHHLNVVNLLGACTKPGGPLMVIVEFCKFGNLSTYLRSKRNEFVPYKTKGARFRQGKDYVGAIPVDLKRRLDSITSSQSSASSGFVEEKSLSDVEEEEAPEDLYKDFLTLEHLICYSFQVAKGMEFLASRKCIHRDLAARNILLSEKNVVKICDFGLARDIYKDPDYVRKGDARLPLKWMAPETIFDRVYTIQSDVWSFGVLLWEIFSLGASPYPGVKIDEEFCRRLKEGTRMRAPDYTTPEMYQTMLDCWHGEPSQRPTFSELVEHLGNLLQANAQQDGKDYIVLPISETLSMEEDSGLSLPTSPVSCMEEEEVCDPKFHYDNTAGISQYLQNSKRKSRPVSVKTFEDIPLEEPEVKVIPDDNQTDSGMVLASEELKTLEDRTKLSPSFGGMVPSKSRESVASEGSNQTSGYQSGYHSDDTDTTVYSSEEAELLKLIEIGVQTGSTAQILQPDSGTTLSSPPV
Test Description: Kinase activity test (ReactionBiology), % enzyme activity relative to DMSO;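 as to remaining activity: VEGFR2 was one member of a ten-kinase screening panel testing marketed FDA-approved drugs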
Format: biochemical
Set-up: purchased ReactionBiology
Run Conditions: VEGFR2; 1 uM; replicate Data 1; read-out: % Enzyme Activity (relative to DMSO controls), Data 1
Consider the following molecules; for each one, report its remaining activity at 1 µM.
Write the answer as a number in %, unit excluded.

Name the recorded remaining activity at 1 µM for C=CC(=O)N1CCC[C@@H](n2nc(-c3ccc(Oc4ccccc4)cc3)c3c(N)ncnc32)C1 [Ibrutinib, reference compound] .
19.6

Another molecule to look at: CC(C)c1nc(CN(C)C(=O)N[C@H](C(=O)N[C@@H](Cc2ccccc2)C[C@H](O)[C@H](Cc2ccccc2)NC(=O)OCc2cncs2)C(C)C)cs1 [Ritonavir, reference compound]
111

Another molecule to look at: C[C@]12CC[C@@H]3c4ccc(O)cc4CC[C@H]3[C@@H]1CC[C@@H]2O [Estradiol, reference compound]
115

* * *

Tested On: NEK2 (Homo sapiens, UniProt P51955)
Construct: purchased ReactionBiology
Test Description: Kinase activity test (ReactionBiology), % enzyme activity relative to DMSO
Type: biochemical
Run Conditions: NEK2; compound at 10 uM; replicate 2
Hi! Could you tag entries with % Enzyme Activity (relative to DMSO controls), Data 2 below 90% as Criterion met, and those at or above as Criterion not met? Much appreciated.

Consider CC(=O)OCC1=C(C(=O)O)N2C(=O)[C@@H](NC(=O)Cc3cccs3)[C@H]2SC1 [Cephalothin] . Does its % Enzyme Activity (relative to DMSO controls), Data 2 lie strictly below 90%?
Criterion met

Another compound to look at: Cc1ccc(C(=O)c2ccc(CC(=O)O)n2C)cc1 [Tolmetin]
Criterion not met

Another compound to look at: Nc1nc2c(ncn2COC(CO)CO)c(=O)[nH]1 [Ganciclovir]
Criterion met

Another compound to look at: c1coc(CNc2ncnc3[nH]cnc23)c1 [Kinetin]
Criterion not met

Another compound to look at: OC[C@@H](O)[C@@H](O)[C@H](O)[C@H](O)CO [Mannitol]
Criterion not met

* * *

Tested On: EPHB4 (Homo sapiens, UniProt P54760)
Construct: purchased ReactionBiology
Sequence (P54760 16-987): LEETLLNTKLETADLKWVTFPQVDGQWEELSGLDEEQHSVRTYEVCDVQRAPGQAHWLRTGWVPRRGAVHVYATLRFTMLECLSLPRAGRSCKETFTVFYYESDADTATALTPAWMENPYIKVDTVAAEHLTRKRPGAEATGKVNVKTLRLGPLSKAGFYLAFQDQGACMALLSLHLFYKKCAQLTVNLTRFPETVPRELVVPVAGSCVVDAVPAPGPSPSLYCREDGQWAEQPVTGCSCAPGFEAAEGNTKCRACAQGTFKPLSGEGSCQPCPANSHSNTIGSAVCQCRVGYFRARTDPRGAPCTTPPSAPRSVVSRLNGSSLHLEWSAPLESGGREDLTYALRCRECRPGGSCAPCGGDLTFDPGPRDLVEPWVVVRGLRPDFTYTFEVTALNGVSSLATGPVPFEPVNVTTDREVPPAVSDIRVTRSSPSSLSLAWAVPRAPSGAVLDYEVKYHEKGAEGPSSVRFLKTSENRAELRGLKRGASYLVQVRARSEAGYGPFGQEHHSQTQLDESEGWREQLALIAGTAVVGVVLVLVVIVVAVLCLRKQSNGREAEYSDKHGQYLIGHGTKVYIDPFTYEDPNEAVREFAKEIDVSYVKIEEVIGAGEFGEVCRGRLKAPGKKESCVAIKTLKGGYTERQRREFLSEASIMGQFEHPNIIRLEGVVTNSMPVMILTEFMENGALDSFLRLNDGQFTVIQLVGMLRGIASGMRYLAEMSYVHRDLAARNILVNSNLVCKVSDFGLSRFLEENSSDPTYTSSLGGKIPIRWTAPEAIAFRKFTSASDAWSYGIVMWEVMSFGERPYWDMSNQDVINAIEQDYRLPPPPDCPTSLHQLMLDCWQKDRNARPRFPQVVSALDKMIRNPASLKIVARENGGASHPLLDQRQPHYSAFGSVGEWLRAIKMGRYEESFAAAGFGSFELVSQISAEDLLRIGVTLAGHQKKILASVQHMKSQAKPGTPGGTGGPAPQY
Test Description: Kinase activity test (ReactionBiology), % enzyme activity relative to DMSO
Format: biochemical
Run Conditions: EPHB4; 1 uM; replicate Data 2
Consider the following molecules; for each one, report its % Enzyme Activity (relative to DMSO controls), Data 2.
Write the answer as a number in %, unit excluded.

Name the recorded % Enzyme Activity (relative to DMSO controls), Data 2 for COc1cc2c(c(OC)c1OC)-c1ccc(OC)c(=O)cc1[C@@H](NC(C)=O)CC2 .
106.52

Another molecule to look at: C[C@H]1O[C@@H](O[C@H]2[C@@H](O)C[C@H](O[C@H]3[C@@H](O)C[C@H](O[C@H]4CC[C@@]5(C)[C@H](CC[C@@H]6[C@@H]5C[C@@H](O)[C@]5(C)[C@@H](C7=CC(=O)OC7)CC[C@]65O)C4)O[C@@H]3C)O[C@@H]2C)C[C@H](O)[C@@H]1O
103.27

Another molecule to look at: COc1ccc2c3c1O[C@H]1C[C@@H](O)C=C[C@@]31CCN(C)C2
103.85

* * *

Consider the following molecules; for each one, report its % Enzyme Activity (relative to DMSO controls), Data 2.
Tested On: VEGFR2 (Homo sapiens)
Test Description: Kinase activity test (ReactionBiology), % enzyme activity relative to DMSO
Format: biochemical
Parameters: purchased ReactionBiology
Run Conditions: VEGFR2; 1 uM; replicate Data 2
Write the answer as a number in %, unit excluded.

Name the recorded % Enzyme Activity (relative to DMSO controls), Data 2 for COc1cccc2c1C(=O)c1c(O)c3c(c(O)c1C2=O)C[C@@](O)(C(=O)CO)C[C@@H]3O[C@H]1C[C@H](N)[C@H](O)[C@H](C)O1 .
108.92

Another molecule to look at: CN(C)CCCN1c2ccccc2Sc2ccc(Cl)cc21
109.04

Another molecule to look at: Cn1c(=O)cc(N2CCC[C@@H](N)C2)n(Cc2ccccc2C#N)c1=O
112.79

Another molecule to look at: COc1ccc2c3c1O[C@H]1C[C@@H](O)C=C[C@@]31CCN(C)C2
101.5

Another molecule to look at: Cc1nc(=O)c2cc(CN(C)c3ccc(C(=O)N[C@@H](CCC(=O)O)C(=O)O)s3)ccc2[nH]1
107.94

Another molecule to look at: CCCCC1C(=O)N(c2ccccc2)N(c2ccccc2)C1=O
109.19

Another molecule to look at: CN1CC(=O)N2[C@H](c3ccc4c(c3)OCO4)c3[nH]c4ccccc4c3C[C@@H]2C1=O
101.65

Another molecule to look at: CC(=O)[C@]1(O)Cc2c(O)c3c(c(O)c2[C@@H](O[C@H]2C[C@H](N)[C@H](O)[C@H](C)O2)C1)C(=O)c1ccccc1C3=O
111.52

Another molecule to look at: C[C@H](O)[C@H](O)[C@H]1CNc2nc(N)[nH]c(=O)c2N1
96.61

Another molecule to look at: O=c1[nH]cc(F)c(=O)[nH]1
109.2

Another molecule to look at: CN[C@H]1CC[C@@H](c2ccc(Cl)c(Cl)c2)c2ccccc21
105.51

Another molecule to look at: CC(C)(Oc1ccc(CCNC(=O)c2ccc(Cl)cc2)cc1)C(=O)O [Bezafibrate]
111.63

Another molecule to look at: COc1cc2c(c(OC)c1OC)-c1ccc(OC)c(=O)cc1[C@@H](NC(C)=O)CC2
110.08

Another molecule to look at: Oc1ccc(O)cc1 [Hydroquinone]
108.7

Another molecule to look at: CN1[C@@H]2CC[C@H]1C[C@@H](OC(=O)c1c[nH]c3ccccc13)C2
101.65

Another molecule to look at: COc1ccc2c(c1)c(CC(=O)O)c(C)n2C(=O)c1ccc(Cl)cc1
105.25

Another molecule to look at: CC1(C)S[C@@H]2[C@H](NC(=O)[C@H](N)c3ccccc3)C(=O)N2[C@H]1C(=O)O
95.2
